Please provide measured pEC50 for the entries that follow.
- target: GLP-1R (Homo sapiens, UniProt P43220)
- Construct: host or cells: GLP-1R CRE-bla CHO-K1 cells
- Sequence (P43220 24-463): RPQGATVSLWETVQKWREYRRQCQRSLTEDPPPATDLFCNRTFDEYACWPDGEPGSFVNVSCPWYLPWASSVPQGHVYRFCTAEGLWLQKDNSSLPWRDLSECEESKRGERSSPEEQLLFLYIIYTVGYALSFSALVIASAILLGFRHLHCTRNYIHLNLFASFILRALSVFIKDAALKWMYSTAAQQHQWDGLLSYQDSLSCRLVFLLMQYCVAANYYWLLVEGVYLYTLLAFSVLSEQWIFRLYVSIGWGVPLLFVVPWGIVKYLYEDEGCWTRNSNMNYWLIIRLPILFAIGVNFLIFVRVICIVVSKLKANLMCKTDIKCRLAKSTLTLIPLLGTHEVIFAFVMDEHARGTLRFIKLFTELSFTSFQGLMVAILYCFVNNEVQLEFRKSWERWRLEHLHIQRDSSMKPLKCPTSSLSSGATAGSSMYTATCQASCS
- Sequence (P01275 100-127 partner limits assumed): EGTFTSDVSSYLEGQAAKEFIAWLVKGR
- procedure.summary: EC20 GLP-1(9-36) PAM cAMP assay: dose response of compound in the presence of fixed concentration of GLP-1(9-36)
- Type: cell-based
- measurement.context: dose response of compound in presence of fixed concentration of GLP-1(9-36), GLP-1R CRE-bla CHO-K1 cells, read-out: EC20 GLP-1(9-36) PAM EC50
- Text: EC20 GLP-1(9-36) PAM cAMP Assay: Dose Response of Compound in the Presence of Fixed Concentration of GLP-1 (9-36). […]
pEC50: −log10 of the molar value.

Hi! What's the reported pEC50 for CCCCCCCOc1ccc(-c2cnc(-c3ccc(C[C@H](NC(=O)c4ccc(C(C)(C)C)cc4)C(=O)N4CC(OC)CC4C(=O)O)cc3)nc2)cc1 (stereo partly drawn) on GLP-1R (Homo sapiens, UniProt P43220)? > 6.10

Hi! What's the reported pEC50 for CCCCCCCOc1ccc(-c2cnc(-c3ccc(C[C@H](NC(=O)c4ccc(C(C)(C)C)cc4)C(=O)NCCC(=O)O)cc3)nc2)c(Cl)c1 on GLP-1R (Homo sapiens, UniProt P43220)? 5.30 to 5.60

Hi! What's the reported pEC50 for CCCCCCCOc1ccc(-c2cnc(-c3ccc(C[C@H](NC(=O)c4ccc(C(C)(C)C)s4)C(=O)NC(Cc4ccc(Cl)cc4)C(=O)O)cc3)nc2)cc1 (stereo partly drawn) on GLP-1R (Homo sapiens, UniProt P43220)? 5.00 to 5.30

Hi! What's the reported pEC50 for C[C@@H](NC(=O)[C@H](Cc1ccc(-c2ncc(-c3ccc(OC(F)(F)F)c(OCC4CC4)c3)cn2)cc1)NC(=O)c1ccc(C(C)(C)C)s1)C(=O)O on GLP-1R (Homo sapiens, UniProt P43220)? 5.00 to 5.30

Hi! What's the reported pEC50 for CCCCCCCOc1ccc(-c2cnc(-c3ccc(C[C@H](NC(=O)c4ccc(C(C)(C)C)s4)C(=O)N[C@H](C)C(=O)O)cc3)c(C)c2)cc1 on GLP-1R (Homo sapiens, UniProt P43220)? 5.60 to 6.10

Hi! What's the reported pEC50 for CCCCCCCOc1ccc(-c2cnc(-c3ccc(C[C@H](NC(=O)c4ccc(C(C)(C)C)s4)C(=O)N[C@@H](CC(=O)Nc4nnn[nH]4)C(=O)O)cc3)nc2)cc1 on GLP-1R (Homo sapiens, UniProt P43220)? 5.60 to 6.10

Provenance of the data: patent US10034886B2
